For reference, Ki measured on Glutamate receptor ionotropic, NMDA 1 (Rattus norvegicus):

Retrieve Ki measured for C[C@@H]1O[C@@H](Oc2c(-c3ccc(O)c(O)c3)oc3cc(O)cc(=O)c-3c2O)[C@H](O)[C@H](O)[C@H]1O and print it.
> 10 µM

Retrieve Ki measured for O=c1cc(O)cc2oc(-c3ccc(O)c(O)c3)c(OC3OC(CO)C(O)C(O)C3O)c(O)c1-2 (stereo not drawn) and print it.
> 10 µM

Retrieve Ki measured for C[C@@H]1O[C@@H](OC[C@H]2O[C@@H](Oc3c(-c4ccc(O)c(O)c4)oc4cc(O)cc(O)c4c3=O)[C@H](O)[C@@H](O)[C@@H]2O)[C@H](O)[C@H](O)[C@H]1O and print it.
> 10 µM

====

endpoint: pKi
In textbook form, pKi equals minus log to base ten of the concentration in mol/L.

Lab note: UniProtKB P28222 assay, enter pKi for O=c1cc(O)cc2oc(-c3ccc(O)c(-c4c(O)cc(O)c5c(=O)cc(-c6ccc(O)cc6)oc45)c3)cc(O)c1-2 here
Sequence (P28222 whole entry): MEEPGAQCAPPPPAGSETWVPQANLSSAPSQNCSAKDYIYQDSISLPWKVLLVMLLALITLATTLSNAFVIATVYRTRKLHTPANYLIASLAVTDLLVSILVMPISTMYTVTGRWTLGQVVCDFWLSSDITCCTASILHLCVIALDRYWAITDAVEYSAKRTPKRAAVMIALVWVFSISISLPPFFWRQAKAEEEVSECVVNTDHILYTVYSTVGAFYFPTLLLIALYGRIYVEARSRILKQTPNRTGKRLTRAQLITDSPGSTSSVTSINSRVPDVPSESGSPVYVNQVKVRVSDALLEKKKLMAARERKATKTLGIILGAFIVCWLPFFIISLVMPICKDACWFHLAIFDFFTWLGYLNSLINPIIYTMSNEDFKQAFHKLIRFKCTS
5.39

====

experimental target: UniProtKB P35348
Sequence (P35348 whole entry): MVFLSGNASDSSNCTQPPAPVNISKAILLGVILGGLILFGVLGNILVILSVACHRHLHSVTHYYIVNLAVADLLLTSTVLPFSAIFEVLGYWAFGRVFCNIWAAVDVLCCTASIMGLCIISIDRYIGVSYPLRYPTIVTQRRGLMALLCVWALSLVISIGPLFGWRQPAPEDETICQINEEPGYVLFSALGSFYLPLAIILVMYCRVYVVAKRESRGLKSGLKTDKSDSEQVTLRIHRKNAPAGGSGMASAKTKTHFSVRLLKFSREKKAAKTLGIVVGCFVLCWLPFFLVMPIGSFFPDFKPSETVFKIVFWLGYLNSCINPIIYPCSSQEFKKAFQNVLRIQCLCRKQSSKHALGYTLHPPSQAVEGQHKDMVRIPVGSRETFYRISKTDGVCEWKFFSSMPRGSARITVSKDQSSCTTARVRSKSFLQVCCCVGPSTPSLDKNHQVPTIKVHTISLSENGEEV
Provide the reported Ki of each item.

Retrieve Ki measured for O=c1cc(O)cc2oc(-c3ccc(O)c(O)c3)c(OC3OC(CO)C(O)C(O)C3O)c(O)c1-2 (stereo not drawn) [NSC_5318390] and print it.
> 10 µM

Retrieve Ki measured for O=c1cc(O)cc2oc(-c3ccc(O)c(-c4c(O)cc(O)c5c(=O)cc(-c6ccc(O)cc6)oc45)c3)cc(O)c1-2 and print it.
> 10 µM

Retrieve Ki measured for C[C@@H]1O[C@@H](Oc2c(-c3ccc(O)c(O)c3)oc3cc(O)cc(=O)c-3c2O)[C@H](O)[C@H](O)[C@H]1O and print it.
> 10 µM

====

Provide the reported Ki of each item.

Lab note: D(2) dopamine receptor (Rattus norvegicus) assay, enter Ki for O=c1c(O)c(-c2ccc(O)c(O)c2)oc2cc(O)cc(O)c12 here
Sequence (P61169 whole entry): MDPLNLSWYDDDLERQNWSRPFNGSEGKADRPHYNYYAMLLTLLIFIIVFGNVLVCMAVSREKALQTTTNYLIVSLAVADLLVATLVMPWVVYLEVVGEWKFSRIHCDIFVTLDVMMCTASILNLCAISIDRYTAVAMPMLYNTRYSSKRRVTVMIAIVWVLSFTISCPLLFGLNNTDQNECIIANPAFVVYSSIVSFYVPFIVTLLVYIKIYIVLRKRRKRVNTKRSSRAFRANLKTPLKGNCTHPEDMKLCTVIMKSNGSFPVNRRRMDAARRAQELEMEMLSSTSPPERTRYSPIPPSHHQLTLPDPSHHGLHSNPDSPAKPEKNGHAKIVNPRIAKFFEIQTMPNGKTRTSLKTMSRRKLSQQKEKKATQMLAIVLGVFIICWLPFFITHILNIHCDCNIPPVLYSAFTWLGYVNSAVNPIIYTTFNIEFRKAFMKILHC
> 10 µM

Lab note: D(2) dopamine receptor (Rattus norvegicus) assay, enter Ki for C[C@@H]1O[C@@H](Oc2c(-c3ccc(O)c(O)c3)oc3cc(O)cc(=O)c-3c2O)[C@H](O)[C@H](O)[C@H]1O here
> 10 µM

Lab note: D(2) dopamine receptor (Rattus norvegicus) assay, enter Ki for CC(C)=CCC[C@]1(C)[C@@H](CC=C(C)C)C[C@]2(CC=C(C)C)C(=O)C(CC=C(C)C)C(=O)[C@]1(C(=O)C(C)C)C2=O (stereo partly drawn) here
> 10 µM

====

experimental target: D(4) dopamine receptor (Rattus norvegicus)
Sequence (P30729 whole entry): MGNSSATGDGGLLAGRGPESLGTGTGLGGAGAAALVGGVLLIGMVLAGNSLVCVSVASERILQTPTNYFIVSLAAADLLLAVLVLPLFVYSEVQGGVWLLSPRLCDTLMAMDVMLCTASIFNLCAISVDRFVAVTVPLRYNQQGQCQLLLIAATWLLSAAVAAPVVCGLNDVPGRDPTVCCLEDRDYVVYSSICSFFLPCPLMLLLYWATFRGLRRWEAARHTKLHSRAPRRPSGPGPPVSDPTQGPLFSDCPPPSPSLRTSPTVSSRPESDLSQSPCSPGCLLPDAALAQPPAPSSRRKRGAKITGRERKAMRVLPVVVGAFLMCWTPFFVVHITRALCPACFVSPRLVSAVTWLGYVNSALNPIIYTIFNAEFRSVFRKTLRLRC
pKi: −log10 of the molar value.
Provide the reported pKi of each item.

Retrieve pKi measured for O=c1cc(O)cc2oc(-c3ccc(O)c(-c4c(O)cc(O)c5c(=O)cc(-c6ccc(O)cc6)oc45)c3)cc(O)c1-2 and print it.
< 5.00

Retrieve pKi measured for C[C@@H]1O[C@@H](OC[C@H]2O[C@@H](Oc3c(-c4ccc(O)c(O)c4)oc4cc(O)cc(O)c4c3=O)[C@H](O)[C@@H](O)[C@@H]2O)[C@H](O)[C@H](O)[C@H]1O and print it.
< 5.00

Retrieve pKi measured for O=c1cc(O)cc2oc(-c3ccc(O)c(O)c3)c(OC3OC(CO)C(O)C(O)C3O)c(O)c1-2 (stereo not given) and print it.
< 5.00

Retrieve pKi measured for O=c1c(O)c(-c2ccc(O)c(O)c2)oc2cc(O)cc(O)c12 and print it.
5.11

Retrieve pKi measured for C[C@@H]1O[C@@H](Oc2c(-c3ccc(O)c(O)c3)oc3cc(O)cc(=O)c-3c2O)[C@H](O)[C@H](O)[C@H]1O and print it.
< 5.00

====

pKi: −log10 of the molar value.
For reference, pKi measured on D(1B) dopamine receptor (Homo sapiens, UniProt P21918):

Retrieve pKi measured for O=c1c(O)c(-c2ccc(O)c(O)c2)oc2cc(O)cc(O)c12 and print it.
< 5.00

Retrieve pKi measured for C[C@@H]1O[C@@H](Oc2c(-c3ccc(O)c(O)c3)oc3cc(O)cc(=O)c-3c2O)[C@H](O)[C@H](O)[C@H]1O and print it.
< 5.00

Retrieve pKi measured for O=c1cc(O)cc2oc(-c3ccc(O)c(O)c3)c(OC3OC(CO)C(O)C(O)C3O)c(O)c1-2 (stereo not drawn) and print it.
< 5.00
